B1: Cold shock protein CspB, residues 1 to 66; numbered along this chain, P41016 (parent)
chain: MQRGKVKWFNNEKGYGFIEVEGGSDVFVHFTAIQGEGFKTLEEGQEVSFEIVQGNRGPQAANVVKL

Variants of: B1
Assay: abundance fitness (aPCA) (normalised: wild type 0, dead -1); higher = more abundant; growth selection in yeast, the domain comes from the species named
Details: Bacillus caldolyticus
property label: abundance fitness
Reply briefly: the number, and no unit.

Query: Input Q34R , output reported abundance fitness.
Response: 0.001

Query: Input E12M , output reported abundance fitness.
Response: 0.004

Query: Input G4N , output reported abundance fitness.
Response: -0.368

Query: Input I33D , output reported abundance fitness.
Response: -0.369

Query: Input G23Q , output reported abundance fitness.
Response: 0.012

Query: Input K39S , output reported abundance fitness.
Response: -0.072

Query: Input Q45H , output reported abundance fitness.
Response: -0.036

Query: Input F27L , output reported abundance fitness.
Response: -0.187

Query: Input K5C , output reported abundance fitness.
Response: -0.003

Query: Input G23A , output reported abundance fitness.
Response: 0.03

Query: Input N10Q , output reported abundance fitness.
Response: -0.025

Query: Input V20W , output reported abundance fitness.
Response: 0.056

Query: Input T31A , output reported abundance fitness.
Response: -0.134

Query: Input I18W , output reported abundance fitness.
Response: -0.973

Query: Input E42L , output reported abundance fitness.
Response: -0.006

Query: Input R3W , output reported abundance fitness.
Response: -0.117

Query: Input Q45V , output reported abundance fitness.
Response: -0.063

Query: Input F9R , output reported abundance fitness.
Response: -0.583

Query: Input R3I , output reported abundance fitness.
Response: -0.025

Query: Input R3T , output reported abundance fitness.
Response: -0.024

Query: Input E19V , output reported abundance fitness.
Response: 0.002

Query: Input K5F , output reported abundance fitness.
Response: -0.008

Query: Input K13V , output reported abundance fitness.
Response: -0.044

Query: Input K13Y , output reported abundance fitness.
Response: -0.03

Query: Input F38E , output reported abundance fitness.
Response: -0.078

Query: Input V20N , output reported abundance fitness.
Response: -0.028

Query: Input V20L , output reported abundance fitness.
Response: 0

Query: Input T40Y , output reported abundance fitness.
Response: -0.037

Query: Input G35R , output reported abundance fitness.
Response: -0.111

Query: Input E42F , output reported abundance fitness.
Response: -0.048

Query: Input F38C , output reported abundance fitness.
Response: -0.103

Query: Input V26E , output reported abundance fitness.
Response: -0.372

Query: Input T31N , output reported abundance fitness.
Response: -0.127

Query: Input V28G , output reported abundance fitness.
Response: -0.638

Query: Input Q34G , output reported abundance fitness.
Response: -0.005

Query: Input F38S , output reported abundance fitness.
Response: -0.057

Query: Input E12V , output reported abundance fitness.
Response: -0.064

Query: Input K39M , output reported abundance fitness.
Response: -0.137

Query: Input G35C , output reported abundance fitness.
Response: 0.02

Query: Input V28S , output reported abundance fitness.
Response: -0.355

Query: Input F17M , output reported abundance fitness.
Response: -0.139

Query: Input I33S , output reported abundance fitness.
Response: -0.422

Query: Input I18N , output reported abundance fitness.
Response: -0.85

Query: Input G14R , output reported abundance fitness.
Response: -0.062

Query: Input T40E , output reported abundance fitness.
Response: -0.027

Query: Input D25H , output reported abundance fitness.
Response: -0.102

Query: Input F30V , output reported abundance fitness.
Response: -0.049

Query: Input V28R , output reported abundance fitness.
Response: -0.993

Query: Input V28Y , output reported abundance fitness.
Response: -0.27

Query: Input T40N , output reported abundance fitness.
Response: -0.078

Query: Input G14P , output reported abundance fitness.
Response: -0.91

Query: Input M1E , output reported abundance fitness.
Response: 0.008

Query: Input D25I , output reported abundance fitness.
Response: -0.214

Query: Input K39T , output reported abundance fitness.
Response: -0.103

Query: Input G37Q , output reported abundance fitness.
Response: -0.078

Query: Input G4F , output reported abundance fitness.
Response: -0.866

Query: Input T31R , output reported abundance fitness.
Response: -0.044

Query: Input E43K , output reported abundance fitness.
Response: 0.059

Query: Input M1F , output reported abundance fitness.
Response: -0.025

Query: Input Y15Q , output reported abundance fitness.
Response: -0.19

Query: Input I18Q , output reported abundance fitness.
Response: -1.12

Query: Input E42H , output reported abundance fitness.
Response: 0.008

Query: Input G37V , output reported abundance fitness.
Response: -0.086

Query: Input G23T , output reported abundance fitness.
Response: 0.003

Query: Input I18Y , output reported abundance fitness.
Response: -1.07

Query: Input T31W , output reported abundance fitness.
Response: -0.289

Query: Input I33L , output reported abundance fitness.
Response: -0.082

Query: Input E19I , output reported abundance fitness.
Response: -0.021

Query: Input L41W , output reported abundance fitness.
Response: -0.359

Query: Input Q45I , output reported abundance fitness.
Response: -0.09

Query: Input I33M , output reported abundance fitness.
Response: -0.144

Query: Input F30Y , output reported abundance fitness.
Response: 0.011

Query: Input M1T , output reported abundance fitness.
Response: -0.03

Query: Input K39Q , output reported abundance fitness.
Response: -0.071

Query: Input Y15C , output reported abundance fitness.
Response: -0.186

Query: Input G23V , output reported abundance fitness.
Response: -0.021

Query: Input G44S , output reported abundance fitness.
Response: -0.029

Query: Input A32I , output reported abundance fitness.
Response: -0.666

Query: Input G44K , output reported abundance fitness.
Response: -0.041

Query: Input G44C , output reported abundance fitness.
Response: 0.005

Query: Input G16M , output reported abundance fitness.
Response: -0.965

Query: Input E19M , output reported abundance fitness.
Response: 0

Query: Input E19Q , output reported abundance fitness.
Response: 0.009

Query: Input D25W , output reported abundance fitness.
Response: -0.26

Query: Input G37S , output reported abundance fitness.
Response: -0.072

Query: Input F9S , output reported abundance fitness.
Response: -0.408

Query: Input F27N , output reported abundance fitness.
Response: -0.335

Query: Input F9I , output reported abundance fitness.
Response: -0.272

Query: Input M1Y , output reported abundance fitness.
Response: 0.027

Query: Input E43T , output reported abundance fitness.
Response: 0.025

Query: Input E46A , output reported abundance fitness.
Response: -0.018

Data provenance: the Human Domainome abundance scans (Beltran et al. 2025)
